Origin of measurements: patent US8598157B2

Record form. Attribute: pIC50. Fill in for each entry.
target desc: PI3Kalpha (Homo sapiens (Human), UniProt P42336)
Sequence (P42336 whole entry): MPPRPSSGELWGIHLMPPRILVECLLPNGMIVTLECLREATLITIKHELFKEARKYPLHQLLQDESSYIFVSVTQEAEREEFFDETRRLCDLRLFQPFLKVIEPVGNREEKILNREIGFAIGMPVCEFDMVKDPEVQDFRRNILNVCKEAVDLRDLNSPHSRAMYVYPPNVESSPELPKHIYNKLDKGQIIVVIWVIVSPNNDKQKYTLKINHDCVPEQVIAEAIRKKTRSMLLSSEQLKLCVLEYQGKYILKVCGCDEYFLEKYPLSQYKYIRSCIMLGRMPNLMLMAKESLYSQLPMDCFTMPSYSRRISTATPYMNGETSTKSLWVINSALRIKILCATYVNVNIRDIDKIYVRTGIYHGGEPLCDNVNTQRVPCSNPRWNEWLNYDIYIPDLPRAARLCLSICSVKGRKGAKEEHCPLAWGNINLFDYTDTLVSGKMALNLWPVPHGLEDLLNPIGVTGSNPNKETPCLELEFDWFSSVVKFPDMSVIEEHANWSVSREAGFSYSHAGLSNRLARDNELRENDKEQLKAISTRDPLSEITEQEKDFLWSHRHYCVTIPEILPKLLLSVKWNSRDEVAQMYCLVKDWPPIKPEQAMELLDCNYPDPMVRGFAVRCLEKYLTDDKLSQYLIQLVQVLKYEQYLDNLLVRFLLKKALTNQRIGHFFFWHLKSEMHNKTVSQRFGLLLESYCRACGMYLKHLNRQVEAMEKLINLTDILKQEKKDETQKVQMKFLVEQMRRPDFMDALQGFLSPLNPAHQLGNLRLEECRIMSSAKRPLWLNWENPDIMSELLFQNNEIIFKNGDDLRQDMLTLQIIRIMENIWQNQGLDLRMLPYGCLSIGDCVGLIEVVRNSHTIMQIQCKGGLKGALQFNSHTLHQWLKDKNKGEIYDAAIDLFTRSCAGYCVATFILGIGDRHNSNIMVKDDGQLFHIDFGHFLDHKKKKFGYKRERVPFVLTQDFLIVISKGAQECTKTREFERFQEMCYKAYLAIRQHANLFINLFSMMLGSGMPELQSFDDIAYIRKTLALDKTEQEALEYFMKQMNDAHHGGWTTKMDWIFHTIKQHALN
assay info: Inhibition of PI3Kalpha-induced PIP-2 phosphorylation (filter-binding assay)
test settings: 33P-ATP, p85alpha/His-p110alpha, read-out: IC50 PI3Kα
Give bare numbers, as −log10 of the molar value.

Cc1ncc(C#Cc2c(C)ncnc2N2CCOCC2)cc1NS(=O)(=O)C(C)C    8.70
CC(=O)N1CCN(c2ncnc(C)c2C#Cc2cnc(C)c(NS(=O)(=O)c3ccc(F)cc3F)c2)CC1    9.10

Provide each entry's pIC50 from the list below.
1. Cc1ncc(C#Cc2c(C)ncnc2N2CCOCC2)cc1NS(=O)(=O)c1cccnc1
2. Cc1ncnc(N2CCOCC2)c1C#Cc1cncc(NS(C)(=O)=O)c1
3. Cc1ncc(C#Cc2c(C)ncnc2N2CCCCC2)cc1NS(=O)(=O)c1ccccc1
4. Cc1ncc(C#Cc2c(C)ncnc2N2CCN(C3CC3)CC2)cc1NS(=O)(=O)c1ccccc1
5. CCc1ncnc(N2CCOCC2)c1C#Cc1cnc(OC)c(NS(=O)(=O)c2cccs2)c1
6. Cc1ncc(C#Cc2c(C)ncnc2N2CCOCC2)cc1NS(=O)(=O)N1CCCC1

1. 9.00
2. 8.40
3. 8.52
4. 7.80
5. 9.12
6. 8.70
